# study-system: human CD73 (Homo sapiens)
# Sequence (P21589 27-549): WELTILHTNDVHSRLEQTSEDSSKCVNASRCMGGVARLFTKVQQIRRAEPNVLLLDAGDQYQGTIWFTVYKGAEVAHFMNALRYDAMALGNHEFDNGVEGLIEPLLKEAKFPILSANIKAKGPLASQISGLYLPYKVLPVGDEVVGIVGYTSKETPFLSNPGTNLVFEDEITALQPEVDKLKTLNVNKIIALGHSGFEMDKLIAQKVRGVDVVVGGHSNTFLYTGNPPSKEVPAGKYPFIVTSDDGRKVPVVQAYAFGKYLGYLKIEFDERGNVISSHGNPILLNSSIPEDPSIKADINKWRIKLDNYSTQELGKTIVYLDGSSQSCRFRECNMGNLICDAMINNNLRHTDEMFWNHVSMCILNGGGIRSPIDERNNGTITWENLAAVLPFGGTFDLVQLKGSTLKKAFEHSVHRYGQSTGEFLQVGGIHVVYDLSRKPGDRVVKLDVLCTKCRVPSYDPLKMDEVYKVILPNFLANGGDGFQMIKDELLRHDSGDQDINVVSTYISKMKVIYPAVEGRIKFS
# assay-remarks: Inhibition of Ecto-5′-nucleotidase (CD73) activity in CHO-CD73 cells, phosphate release from AMP
# experimental-setup: CHO-K1 cells stably transfected with human CD73; 25 μM AMP; 50 minutes, 37° C.; read-out: Potency: CD73 IC50
// values below are reported IC50

> print(dat)
                                   compound     observed
1  N#Cc1ccc(Cn2nccc2-c2cc(C(F)(F)F)c3nnn(-c4ccc5cn[nH]c5c4)c3c2)nc1  0.1 to 1 µM
2  N#Cc1ccc(Cn2ncc(Cl)c2-c2ccc3nnn(-c4ccc5[nH]c(=O)[nH]c5c4)c3c2)cc1  0.1 to 1 µM
3  COC(=O)Cn1nc(-c2ccc3[nH]c(=O)[nH]c3c2)c2cc(-c3ccnn3Cc3ccc(C#N)cc3)cnc21       > 1 µM
4  N#Cc1ccc(Cn2nccc2-c2cc(F)c3nnn(-c4ccc5[nH]c(=O)[nH]c5c4)c3c2)c(CN2CCC2C(=O)O)c1 (stereo not drawn)       > 1 µM
5  N#Cc1ccc(Cn2nccc2-c2cc3c(cn2)ncn3-c2ccc3cn[nH]c3c2)cc1       > 1 µM

Which measured IC50 value corresponds to O=c1[nH]c2ccc(-n3nnc4cnc(-c5ccnn5Cc5ccc(Cl)cn5)cc43)cc2[nH]1 ?
0.1 to 1 µM
